meta.source: patent US11542262B2

# reported IC50; entries follow
systemUnderTest: PI3Kγ (Homo sapiens)
Sequence (P48736 whole entry, species assumed): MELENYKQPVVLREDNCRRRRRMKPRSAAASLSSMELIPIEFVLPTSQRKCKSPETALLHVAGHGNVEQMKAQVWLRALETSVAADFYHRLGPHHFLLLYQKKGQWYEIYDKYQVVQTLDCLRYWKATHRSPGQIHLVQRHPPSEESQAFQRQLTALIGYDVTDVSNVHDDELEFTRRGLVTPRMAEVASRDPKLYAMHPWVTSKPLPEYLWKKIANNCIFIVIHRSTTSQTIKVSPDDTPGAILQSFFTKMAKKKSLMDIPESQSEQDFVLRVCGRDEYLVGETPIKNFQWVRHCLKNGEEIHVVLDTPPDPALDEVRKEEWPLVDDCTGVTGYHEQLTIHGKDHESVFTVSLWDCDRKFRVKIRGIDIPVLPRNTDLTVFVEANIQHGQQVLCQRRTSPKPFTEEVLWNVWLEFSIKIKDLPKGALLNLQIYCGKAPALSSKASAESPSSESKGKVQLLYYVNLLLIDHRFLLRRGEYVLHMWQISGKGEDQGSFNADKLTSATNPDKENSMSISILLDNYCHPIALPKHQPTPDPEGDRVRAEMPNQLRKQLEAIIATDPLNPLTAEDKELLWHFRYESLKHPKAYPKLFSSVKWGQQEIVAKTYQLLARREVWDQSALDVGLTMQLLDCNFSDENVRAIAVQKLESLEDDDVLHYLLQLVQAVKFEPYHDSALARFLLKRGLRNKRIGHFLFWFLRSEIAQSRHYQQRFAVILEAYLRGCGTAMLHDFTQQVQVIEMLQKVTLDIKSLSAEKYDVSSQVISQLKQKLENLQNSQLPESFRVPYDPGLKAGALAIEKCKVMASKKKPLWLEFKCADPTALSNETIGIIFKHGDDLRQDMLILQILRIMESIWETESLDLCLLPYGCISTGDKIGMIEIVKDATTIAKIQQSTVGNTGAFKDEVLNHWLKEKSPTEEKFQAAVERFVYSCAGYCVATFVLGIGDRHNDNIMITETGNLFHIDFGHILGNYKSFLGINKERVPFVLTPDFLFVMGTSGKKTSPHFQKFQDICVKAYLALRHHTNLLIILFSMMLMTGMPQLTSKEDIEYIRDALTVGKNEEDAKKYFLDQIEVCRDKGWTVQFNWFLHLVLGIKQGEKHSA
assayProcedure: ADP-Glo luminescent assay, enzymatic activity of PI3K gamma
Format: biochemical
conditionInfo: ATP 25 μM; read-out: PI3K gamma (nM) inhibitory activity (IC50)
Procedure: The compounds would be tested from 1 or 10 μM, 3-fold dilution for 10 doses, in duplicate. Compound preparation: Dilute a compound to 100× of the final desired highest inhibitor concentration in reaction by 100% DMSO. […] Kinase reaction: Prepare a solution of PI3K in 1× kinase buffer at 2-fold the final concentration of each reagent in the assay. […] Add 10 ul Kinase Detection Reagent to each well, shake 1 min, equilibrate for 30 min before reading on a luminescence plate reader. […]
endpoint: IC50 (nM)

                                   molecule       systemundertest  recordednumber
0  CC(=O)Nc1nc(C)c(-c2ccc3c(c2)CN([C@@H](C)C2CC2)C3=O)s1  PI3Kγ (Homo sapiens)             2.5
1  Cc1nc(NC(=O)C(C)C)sc1-c1cc2c(c(P(C)(C)=O)c1)C(=O)N([C@@H](C)C1CC1)C2  PI3Kγ (Homo sapiens)             4.5
2  CC(=O)Nc1nc(C)c(-c2cc3c(c(CN4CCOCC4)n2)C(=O)N([C@@H](C)C2CC2)C3)s1  PI3Kγ (Homo sapiens)             4.6
3  CC(=O)Nc1nc(C)c(-c2cc3c(c(NC(=O)C4CC4C#N)n2)C(=O)N([C@@H](C)C2CC2)C3)s1 (stereo partly shown)  PI3Kγ (Homo sapiens)             0.8
4  CC(=O)Nc1nc(C)c(-c2cc3c(c(N4CCS(=O)(=O)CC4)n2)C(=O)N([C@@H](C)C2CC2)C3)s1  PI3Kγ (Homo sapiens)             1.9
5  CC(=O)Nc1nc(C)c(-c2cc3c(c(N4CCN(C(C)=O)CC4)n2)C(=O)N([C@@H](C)C2CC2)C3)s1  PI3Kγ (Homo sapiens)               2
6  Cc1nc(NC(=O)C2CC2)sc1-c1cc2c(c(P(C)(C)=O)c1)C(=O)N([C@@H](C)C1CC1)C2  PI3Kγ (Homo sapiens)             7.7
